# TARGET DESC: ACE-2 (Homo sapiens, UniProt Q9BYF1)
# Construct: a stop codon inserted after the serine immediately preceding the transmembrane domain; made in house; host or cells: CHO K1 cells (transient transfection, purified from conditioned medium)
# Sequence (Q9BYF1 18-740 limits assumed): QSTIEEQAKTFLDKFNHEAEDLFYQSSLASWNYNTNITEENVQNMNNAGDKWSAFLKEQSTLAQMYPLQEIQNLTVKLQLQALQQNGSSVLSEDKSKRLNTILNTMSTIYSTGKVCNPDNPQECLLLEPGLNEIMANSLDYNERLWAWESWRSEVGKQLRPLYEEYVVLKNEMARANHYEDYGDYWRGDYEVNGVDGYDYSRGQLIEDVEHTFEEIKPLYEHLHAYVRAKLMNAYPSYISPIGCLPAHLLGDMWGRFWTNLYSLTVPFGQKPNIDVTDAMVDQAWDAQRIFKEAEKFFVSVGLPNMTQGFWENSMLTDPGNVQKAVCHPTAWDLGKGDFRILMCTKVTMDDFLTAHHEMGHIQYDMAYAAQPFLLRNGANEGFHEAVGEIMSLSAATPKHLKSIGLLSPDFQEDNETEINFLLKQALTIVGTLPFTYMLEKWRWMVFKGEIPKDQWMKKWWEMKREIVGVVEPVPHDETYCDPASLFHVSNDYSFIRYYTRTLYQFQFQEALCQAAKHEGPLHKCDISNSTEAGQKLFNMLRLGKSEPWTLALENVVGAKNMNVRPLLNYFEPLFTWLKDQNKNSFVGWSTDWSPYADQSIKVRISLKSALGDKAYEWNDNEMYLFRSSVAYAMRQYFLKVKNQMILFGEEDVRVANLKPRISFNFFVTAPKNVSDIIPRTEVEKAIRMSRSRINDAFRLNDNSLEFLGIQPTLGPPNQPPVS
# ASSAY SUMMARY: ACE-2 Competitive Substrate Assay (ACS Assay)
# Type: biochemical
# CONDITION LABEL: Table 3, very good ACE-2 inhibiting compounds; species not given; read-out: ACE-2 Activity, Ki
RECORDED ENDPOINT: Ki

COMPOUND | RECORDED ENDPOINT | RESULT
CC(C)C[C@H](N[C@@H](Cc1ccc(-c2cc(Cl)cc(Cl)c2)cc1)C(=O)O)C(=O)O | Ki | < 50 nM
CC(C)C[C@H](N[C@@H](Cc1ccc(C(=O)C(F)(F)F)n1CCC1CCCCC1)C(=O)O)C(=O)O | Ki | < 50 nM
CC(C)C[C@H](N[C@@H](Cc1ccccc1Oc1cc(Cl)cc(Cl)c1)C(=O)O)C(=O)O | Ki | < 50 nM
CC(C)C[C@H](N[C@@H](CC(=O)Nc1nc2ccc(Br)cc2s1)C(=O)O)C(=O)O | Ki | < 50 nM
CC(C)CC(N[C@@H](Cc1cncn1Cc1cccc(F)c1)C(=O)O)C(=O)O (single isomer, unassigned) | Ki | < 50 nM
CC(C)C[C@H](N[C@@H](Cc1cccc(OCc2csc3ccc(Cl)cc23)c1)C(=O)O)C(=O)O | Ki | < 50 nM
CC(C)CC(N[C@@H](Cc1cncn1Cc1cc(Cl)cc(Cl)c1)C(=O)O)C(=O)O (single isomer, unassigned) | Ki | < 50 nM
CC(C)CC(N[C@@H](Cc1cncn1Cc1ccc([N+](=O)[O-])cc1)C(=O)O)C(=O)O (single isomer, unassigned) | Ki | 50 to 100 nM
Cc1cccc(Cn2cncc2C[C@H](NC(CC(C)C)C(=O)O)C(=O)O)c1 (single isomer, unassigned) | Ki | < 50 nM
CC(C)C[C@H](N[C@@H](Cc1ccc(-c2ccc(F)cc2)cc1)C(=O)O)C(=O)O | Ki | < 50 nM
CC(C)C[C@H](N[C@@H](CC1COC(=O)N1Cc1cc(Cl)cc(Cl)c1)C(=O)O)C(=O)O (stereo in doubt) | Ki | 50 to 100 nM
CC(C)C[C@H](N[C@@H](Cc1ccnn1Cc1cc(Cl)cc(Cl)c1)C(=O)O)C(=O)O | Ki | < 50 nM
CC(C)CC(N[C@@H](Cc1cncn1Cc1cccc(Cl)c1)C(=O)O)C(=O)O (single isomer, unassigned) | Ki | < 50 nM
CC(C)CC(N[C@@H](Cc1cncn1Cc1cccc(I)c1)C(=O)O)C(=O)O (single isomer, unassigned) | Ki | < 50 nM
Cc1ccc(Cn2cncc2C[C@H](NC(CC(C)C)C(=O)O)C(=O)O)cc1C (single isomer, unassigned) | Ki | < 50 nM
CC(C)C[C@H](N[C@@H](Cc1ccc(-c2ccccn2)cc1)C(=O)O)C(=O)O | Ki | 50 to 100 nM
